Each item that follows carries a reported koff.
Biological target: T1, monkey GFRα3 expressed with a C-terminal myc-myc-hexahistidine tag (monkey (Mf), UniProt O60609 32-374 (human entry), limits assumed)
T1 construct: also called MfGFRα3-mmh; MfGFRα3-mmH
T1 chain: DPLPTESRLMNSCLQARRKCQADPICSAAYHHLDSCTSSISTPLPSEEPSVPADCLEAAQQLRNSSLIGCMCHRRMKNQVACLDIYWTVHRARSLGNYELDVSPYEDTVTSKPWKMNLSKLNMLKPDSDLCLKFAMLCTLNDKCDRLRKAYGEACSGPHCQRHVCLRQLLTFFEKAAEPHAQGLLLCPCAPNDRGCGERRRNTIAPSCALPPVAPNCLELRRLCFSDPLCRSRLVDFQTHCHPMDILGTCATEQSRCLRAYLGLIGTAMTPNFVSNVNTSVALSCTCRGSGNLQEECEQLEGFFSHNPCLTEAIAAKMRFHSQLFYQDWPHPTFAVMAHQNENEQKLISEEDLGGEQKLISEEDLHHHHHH
Experiment: SPR, Ab captured, 37C
ATTRIBUTE_MEASURED: koff

- BINDER: "H4H2352S (antibody, human IgG4, V domains shown, human IgG4 Fc (H4H); also called H4H2352S-1) VH: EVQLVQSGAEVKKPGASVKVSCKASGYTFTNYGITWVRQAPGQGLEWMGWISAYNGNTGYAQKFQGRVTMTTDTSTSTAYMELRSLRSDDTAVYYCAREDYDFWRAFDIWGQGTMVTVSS VL: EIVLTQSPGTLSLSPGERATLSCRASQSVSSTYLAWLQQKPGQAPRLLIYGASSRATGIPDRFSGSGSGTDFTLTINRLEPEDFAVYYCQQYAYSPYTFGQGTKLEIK"
  ATTRIBUTE_MEASURED: "koff"
  OBSERVED_VALUE: "6.53e-05 s⁻¹"
- BINDER: "H4H2357S (antibody, human IgG4, V domains shown, human IgG4 Fc (H4H)) VH: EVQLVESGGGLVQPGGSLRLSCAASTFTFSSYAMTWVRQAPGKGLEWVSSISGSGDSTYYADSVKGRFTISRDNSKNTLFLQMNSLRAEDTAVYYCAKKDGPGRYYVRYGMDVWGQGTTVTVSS VL: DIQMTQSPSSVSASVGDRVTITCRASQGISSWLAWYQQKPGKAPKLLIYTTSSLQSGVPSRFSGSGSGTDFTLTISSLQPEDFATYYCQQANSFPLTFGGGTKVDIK"
  ATTRIBUTE_MEASURED: "koff"
  OBSERVED_VALUE: "0.00135 s⁻¹"
- BINDER: "H4H2294S (antibody, human IgG4, V domains shown, human IgG4 Fc (H4H)) VH: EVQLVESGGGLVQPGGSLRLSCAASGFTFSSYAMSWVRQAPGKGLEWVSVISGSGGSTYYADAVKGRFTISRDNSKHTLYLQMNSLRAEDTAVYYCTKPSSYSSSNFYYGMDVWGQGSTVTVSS VL: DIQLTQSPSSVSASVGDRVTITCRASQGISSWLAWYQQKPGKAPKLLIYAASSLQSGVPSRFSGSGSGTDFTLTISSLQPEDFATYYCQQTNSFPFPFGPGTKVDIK"
  ATTRIBUTE_MEASURED: "koff"
  OBSERVED_VALUE: "0.000974 s⁻¹"
